Recorded TGI values for a group of compounds are listed next.
Tested on: MDA-MB-435
Test: NCI tumour cell line growth inhibition, 48 h

>  <compound>
OCC(O)C(O)C(O)C(O)/C=N/Nc1nc(O)c(/C=C2\C=Nc3ccccc32)[nH]1 (stereo not given)

>  <assay endpoint>
TGI

>  <experimental value>
> 100 µM

$$$$
>  <compound>
CC(/C=N/NC1=NCCCN1)=N\NC1=NCCCN1

>  <assay endpoint>
TGI

>  <experimental value>
> 100 µM

$$$$

Entry under test: O=C(NCCCCOCC#Cc1ccccc1C#CCS(=O)(=O)c1ccccc1)c1cc2ccccc2[nH]1 . Its TGI was 30.3 µM

Lookup result for COc1ccc(-c2c(N)n[nH]c2-c2cc(OC)c(OC)c(OC)c2)cc1 ; measured TGI: 0.0907 µM
